B1: ZNF263 (parent)
chain: LLRHQRIHTGERPYKCPECGKSFS

# Variants of: B1
# test-method-notes: protein stability index of a GFP-peptide fusion (GPS, HEK-293T) (PSI 1-6); higher = more stable;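 further: lentivirally expressed fusions sorted by FACS into six bins by GFP to DsRed ratio, PSI derived from sequencing read proportions per bin multiplied by bin number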
# test-settings: c terminus: a fixed tail appended
Catalogue of protein stability index values

Answered examples (2):
alteration | reported-value
K21R | 2.01
K15L | 1.98

# input for lookup
Ask: Entry S24F : reported protein stability index = ?
Reply: 2.01
